Assay: Time required to reduce the alkylating activity of 10% human blood serum from its initial value by 50%.
Format: ADME, Plasma
property-measured: half-life (h)
Your answer should be a plain number; it is taken to be in h.

O=C(CCCc1ccc(N(CCCl)CCCl)cc1)N/N=C/CN1C(=O)C=CC1=O 4
O=C(O)CCCc1ccc(N(CCCl)CCCl)cc1 4.5
O=C(CCCc1ccc(N(CCCl)CCCl)cc1)OCCN1C(=O)C=CC1=O 3.1

q: Find the recorded half-life belonging to `O=C(CCCc1ccc(N(CCCl)CCCl)cc1)N/N=C/c1cccc(N2C(=O)C=CC2=O)c1` and report it.
a: 5.9

q: Find the recorded half-life belonging to `O=C(CCCc1ccc(N(CCCl)CCCl)cc1)Oc1cccc(N2C(=O)C=CC2=O)c1` and report it.
a: 4.3

q: Find the recorded half-life belonging to `C/C(=N\NC(=O)CCCc1ccc(N(CCCl)CCCl)cc1)c1cccc(N2C(=O)C=CC2=O)c1` and report it.
a: 4.5

* * *

Reported Activity values follow for various compounds
Organism: Homo sapiens
Experiment: Alkylating activity of compound remaining after 24 hours of incubation with 10% human blood serum
Type: functional
Your answer should be a plain number; it is taken to be in %.

C/C(=N\NC(=O)CCCc1ccc(N(CCCl)CCCl)cc1)c1cccc(N2C(=O)C=CC2=O)c1 22.9
O=C(CCCc1ccc(N(CCCl)CCCl)cc1)N/N=C/CN1C(=O)C=CC1=O 25
O=C(O)CCCc1ccc(N(CCCl)CCCl)cc1 12.2
O=C(CCCc1ccc(N(CCCl)CCCl)cc1)Oc1cccc(N2C(=O)C=CC2=O)c1 22.3

q: Find the recorded Activity belonging to `O=C(CCCc1ccc(N(CCCl)CCCl)cc1)N/N=C/c1cccc(N2C(=O)C=CC2=O)c1` and report it.
a: 24.1

q: Find the recorded Activity belonging to `O=C(CCCc1ccc(N(CCCl)CCCl)cc1)OCCN1C(=O)C=CC1=O` and report it.
a: 20.9

Values compiled from ChEMBL document CHEMBL1131029.
